Hey, just so you know, these numbers are from patent US4450269A.

This section presents compounds with their documented Spore Germination Rating values.
# Tested on: Venturia inaequalis
# TEST_METHOD_NOTES: Spore germination test
# Format: cell-based
# EXPERIMENTAL_CONTEXT: VI, 10 ppm, 48 hours
ENDPOINT: Spore Germination Rating

>>> df
                             smiles_code                  endpoint   reported
0        O=c1c(Cl)nsnc1Oc1cc(Cl)cc(Cl)c1  Spore Germination Rating   0 (0-10)
1             Cc1ccc(Oc2nsnc(Cl)c2=O)cc1  Spore Germination Rating   0 (0-10)
2          Cc1cc(C)cc(Oc2nsnc(Cl)c2=O)c1  Spore Germination Rating  2 (40-60)
3            O=c1c(Cl)nsnc1Oc1ccc(Br)cc1  Spore Germination Rating   0 (0-10)
4  O=c1c(Cl)nsnc1Oc1ccc([N+](=O)[O-])cc1  Spore Germination Rating   0 (0-10)
5      CNC(=O)Nc1ccc(Oc2nsnc(Cl)c2=O)cc1  Spore Germination Rating  2 (40-60)
